B1: EEHEE_rd4_0003 (parent)
chain: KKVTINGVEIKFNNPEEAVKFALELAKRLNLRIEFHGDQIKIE

Variants of: B1
Assay: folding stability dG (cDNA display proteolysis); higher = more stable
Details: PBS, room temperature
measuredQuantity: folding stability dG (kcal/mol)
Reply numerically in kcal/mol, unit not repeated.

Complete the entry with folding stability dG for `I10W`
2.55

Answer with reported folding stability dG of `G37E`
2.52

Return the recorded folding stability dG value; entry: `N14F`
2.64

Return the recorded folding stability dG value; entry: `R32Q`
2.1

Name the recorded folding stability dG of the variant listed here: `K27S`
2.52

// Input: `K11D` . Output its folding stability dG only.
2.3

Specify measured folding stability dG for `D38W` .
2.73

Tell me measured folding stability dG for `E16H` please.
2.47

Respond only with folding stability dG recorded for `H36P`
1.71

Quote folding stability dG reported for `I40V` please.
2.07

Give recorded folding stability dG. `I40D`
1.39

Name the recorded folding stability dG of the item `V8S` in your answer.
1.97

Item `L31T` : provide folding stability dG
1.71

Respond only with folding stability dG recorded for `I42R`
1.44

# return recorded folding stability dG for input `K11Q`
2.72

Using known records, supply folding stability dG for `E9K`
2.08

Give the measured folding stability dG for `N30D`
1.9

Report folding stability dG, nothing else, for this variant: `K11H`
3.03

Using the record for `Q39H` , state its measured folding stability dG.
2.91

State its folding stability dG: `N30L`
2.51

Please give measured folding stability dG of the following entry: `L25Y`
2.72

Provide measured folding stability dG value, entry: `A22S`
1.59

Report folding stability dG for `E24K`
2.4

Read off the recorded folding stability dG for `I42W`
1.58

Give the reported value of folding stability dG for this record: `E43N`
2.6

Tell me measured folding stability dG for `I40A` please.
1.49

Read off the recorded folding stability dG for `E43K`
2.65

For `G37P` , write its folding stability dG.
2.49

Input `R32W` , output reported folding stability dG.
2.2

Return value of folding stability dG for input `A18R` , no commentary.
1.72

Could you please provide reported folding stability dG for `E16D` ? Thanks!
2.53

Input `N30M` , output reported folding stability dG.
2.43

Input `Q39D` , output reported folding stability dG.
2.64

Identify the reported folding stability dG for the following entry. `P15I`
2.85

Retrieve folding stability dG measured for `E34V` and print it.
2.73

Indicate its recorded folding stability dG; the variant in question is `L23I`
2.57

Report folding stability dG, nothing else, for this variant: `F35V`
2.37

Provide one value: measured folding stability dG of `F12P`
1.14

State its folding stability dG: `L25H`
1.48

// Input: `N13Q` . Output its folding stability dG only.
2.54

Could you please provide reported folding stability dG for `T4S` ? Thanks!
2.38

Specify folding stability dG for `I42G` and stop.
1.26

Give a short answer stating reported folding stability dG for `R28N` .
1.99

Given the variant `G37K` , write its reported folding stability dG.
2.47

Specify folding stability dG for `V8P` and stop.
1.6

Indicate its recorded folding stability dG; the variant in question is `K1G`
2.6

Recall and state the measured folding stability dG for `Q39P` .
1.77

State its folding stability dG: `T4C`
3.48

Entry `K41V` needs its folding stability dG filled in; supply it.
3

State its folding stability dG for this variant: `F35I`
2.58

Dear colleague, please send me the reported folding stability dG for `G7I` when you can.
2.84

Given the variant `Q39M` , write its reported folding stability dG.
2.88

In one line, give reported folding stability dG of the entry `N13D` .
2.73

Please indicate folding stability dG recorded for `R28K`
2.33

For `G37Q` , write its folding stability dG.
2.44
